# Test system: 885512-296-R-J2-PDC complex spheroid viability
# assayExplanation: Anticancer human tumor 885512-296-R-J2-PDC patient-derived breast carcinoma cell line growth inhibition [GQUAD]; active = viability on the fitted dose curve at most 10% of control; inactive = the rest
# conditionSet: second compound 0.0316 µM; first compound 3.16 µM
In this exercise, the only acceptable responses are active, inactive

Which outcome did this test record for the molecule C=CCn1c(=O)c2cnc(Nc3ccc(N4CCN(C)CC4)cc3)nc2n1-c1cccc(C(C)(C)O)n1 + Cc1cnc(CNC(=O)c2c(=O)c3ccc(N4CCCN(C)CC4)nc3n3c2sc2ccccc23)cn1 ?
active

Identify the outcome logged in this assay for the molecule shown: C#Cc1c(F)ccc2cc(O)cc(-c3ncc4c(N5CC6CCC(C5)N6)nc(OCC56CCCN5CC(F)C6)nc4c3F)c12 (stereo not given) + Cc1[nH]c2ccc(F)cc2c1-c1nc2c3cccnc3c3ncccc3c2[nH]1
inactive

Lab log entry: COc1ccc([C@@H](O)c2cc(-c3ncnc4cc(N5CCOCC5)ccc34)c(F)cc2Cl)nn1 + CN(C)c1ccc(Nc2c3ccc(NC(=O)CCN4CCCC4)cc3nc3cc(NC(=O)CCN4CCCC4)ccc23)cc1 — outcome as called in the assay?
inactive

Please share the test call associated with CCCS(=O)(=O)Nc1ccc(F)c(C(=O)c2c[nH]c3ncc(-c4ccc(Cl)cc4)cc23)c1F + Cc1[nH]c2ccc(F)cc2c1-c1nc2c3cccnc3c3ncccc3c2[nH]1 .
active

For COc1cc(C2c3cc4c(cc3C(OC3OC5COC(C)OC5C(O)C3O)C3COC(=O)C23)OCO4)cc(OC)c1O (stereo not given) + CN(C)c1ccc(Nc2c3ccc(NC(=O)CCN4CCCC4)cc3nc3cc(NC(=O)CCN4CCCC4)ccc23)cc1 , which call appears in the assay record?
inactive

###

# Test system: 885512-296-R-J2-PDC complex spheroid viability
# assayExplanation: Anticancer human tumor 885512-296-R-J2-PDC cell line growth inhibition [GQUAD];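 also: spheroids exposed to the compounds for one week; percent of tumor spheroid viability relative to DMSO vehicle control wells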
# conditionSet: second compound 10 µM; first compound 10 µM; stronger effect = lower value
experimentalReadout: viability, T/C

// viability, T/C lookup, key: COc1ncnc(C2CC2)c1-c1ncc2cnn(Cc3ccc(-c4nc(C(F)(F)F)cn4C(C)C)cc3)c2n1 + CN(C)c1ccc(Nc2c3ccc(NC(=O)CCN4CCCC4)cc3nc3cc(NC(=O)CCN4CCCC4)ccc23)cc1
5.91%

Bench note: what viability, T/C did CC(C)(O)C1CCC(Nc2ccc3ncc(-c4cccc(C(F)(F)F)c4)n3n2)CC1 (stereo not given) + CN(C)c1ccc(Nc2c3ccc(NC(=O)CCN4CCCC4)cc3nc3cc(NC(=O)CCN4CCCC4)ccc23)cc1 show?
0.22%

Param item = CC1COCCN1c1cc(-c2ccnn2C)c2ccnc(-c3ccn[nH]3)c2n1 (stereo not given) + CN(C)c1ccc(Nc2c3ccc(NC(=O)CCN4CCCC4)cc3nc3cc(NC(=O)CCN4CCCC4)ccc23)cc1 ; retrieve measured viability, T/C.
2.61%

Which viability, T/C value belongs to CC(C)(O)C1CCC(Nc2ccc3ncc(-c4cccc(C(F)(F)F)c4)n3n2)CC1 (stereo not given) + Cc1cnc(CNC(=O)c2c(=O)c3ccc(N4CCCN(C)CC4)nc3n3c2sc2ccccc23)cn1 ?
0.2%

Endpoint output: viability, T/C of CC(C)(O)C1CCC(Nc2ccc3ncc(-c4cccc(C(F)(F)F)c4)n3n2)CC1 (stereo not given) + Cc1[nH]c2ccc(F)cc2c1-c1nc2c3cccnc3c3ncccc3c2[nH]1 . Value?
1%
